Molecular target: TLR8 (Homo sapiens, UniProt Q9NR97)
Sequence (Q9NR97 27-1041): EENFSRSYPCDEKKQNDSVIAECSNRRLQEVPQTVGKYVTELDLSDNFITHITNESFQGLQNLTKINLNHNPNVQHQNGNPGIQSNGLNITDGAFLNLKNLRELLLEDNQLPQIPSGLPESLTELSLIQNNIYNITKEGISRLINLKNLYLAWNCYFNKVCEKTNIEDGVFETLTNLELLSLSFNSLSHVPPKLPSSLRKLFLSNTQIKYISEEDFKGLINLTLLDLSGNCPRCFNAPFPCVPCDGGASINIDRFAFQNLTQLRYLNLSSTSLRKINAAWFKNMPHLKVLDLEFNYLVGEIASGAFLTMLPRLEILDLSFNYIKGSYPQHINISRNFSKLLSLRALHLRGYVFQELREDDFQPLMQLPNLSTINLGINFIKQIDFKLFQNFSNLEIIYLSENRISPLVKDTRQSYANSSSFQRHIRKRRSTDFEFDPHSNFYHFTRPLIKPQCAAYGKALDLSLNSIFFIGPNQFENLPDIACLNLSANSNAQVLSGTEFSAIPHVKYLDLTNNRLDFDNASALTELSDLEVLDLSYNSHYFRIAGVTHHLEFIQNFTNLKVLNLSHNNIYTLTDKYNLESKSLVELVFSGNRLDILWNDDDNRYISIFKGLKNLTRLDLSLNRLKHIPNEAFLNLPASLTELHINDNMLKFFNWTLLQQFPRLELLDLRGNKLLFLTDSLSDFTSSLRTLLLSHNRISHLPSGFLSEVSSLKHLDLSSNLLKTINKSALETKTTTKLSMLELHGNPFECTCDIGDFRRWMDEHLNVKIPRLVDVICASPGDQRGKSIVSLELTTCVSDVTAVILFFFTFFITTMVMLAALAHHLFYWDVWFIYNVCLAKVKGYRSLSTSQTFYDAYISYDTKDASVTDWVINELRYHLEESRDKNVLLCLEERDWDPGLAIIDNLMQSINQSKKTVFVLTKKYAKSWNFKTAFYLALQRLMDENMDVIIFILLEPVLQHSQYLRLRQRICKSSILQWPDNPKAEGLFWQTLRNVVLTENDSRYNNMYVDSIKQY
Assay: PBMC assay for TLR8 (TNFα in supernatants by ELISA)
Assay type: cell-based
Set-up: Peripheral blood mononuclear cells (PBMCs) from human blood were isolated; endogenous in cells; host or cells: human PBMCs
Details: human PBMCs incubated with compound overnight, MC50 = concentration at which 50% of the maximum induction is seen
VALUE KIND: EC50

Entry CCCN(CCC)C(=O)C1=Cc2ccc(-c3cccnc3)cc2N=C(N)C1 : reported EC50 = ?
0.001 to 0.1 µM

Entry CCCN(CCC)C(=O)C1=Cc2ccc(-c3ccc(O)cc3)cc2N=C(N)C1 : reported EC50 = ?
0.1 to 1 µM

Entry CCCN(CC(N)=O)C(=O)C1=Cc2ccc(-c3ccc(C(=O)N4CCCC4)cc3)cc2N=C(N)C1 : reported EC50 = ?
0.1 to 1 µM

Entry CCOC(=O)C1=Cc2ccc(-c3cccc(C#N)c3)cc2N=C(N)C1 : reported EC50 = ?
0.001 to 0.1 µM
